Quick reference for log10(IC50) among some compounds
- MEASURED ON: Gamma-butyrobetaine dioxygenase (Pseudomonas sp. (strain AK-1))
- Sequence (P80193 whole entry): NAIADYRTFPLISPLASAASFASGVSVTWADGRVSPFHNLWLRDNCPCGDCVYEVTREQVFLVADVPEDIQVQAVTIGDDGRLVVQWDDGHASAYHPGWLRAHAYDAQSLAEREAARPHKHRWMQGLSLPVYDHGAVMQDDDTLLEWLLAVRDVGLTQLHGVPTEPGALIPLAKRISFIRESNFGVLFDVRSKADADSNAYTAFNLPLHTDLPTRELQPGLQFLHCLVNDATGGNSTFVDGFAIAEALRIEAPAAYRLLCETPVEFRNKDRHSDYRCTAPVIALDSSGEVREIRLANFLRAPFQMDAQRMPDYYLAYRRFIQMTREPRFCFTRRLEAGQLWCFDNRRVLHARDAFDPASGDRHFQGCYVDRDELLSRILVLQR
- ASSAY METHOD TEXT: Inhibition of Pseudomonas sp. AK1 BBOX assessed as hydroxylation of GBB to L-carnitine measured for 60 sec in presence of 2OG and Fe2+ by 1H NMR assay
Friendly reminder: values = log10 of IC50, unit µM.

Recorded log10(IC50), per entry:
1. CC(C)C[C@H](NC(=O)c1nc(Cl)c2ccccc2c1O)C(=O)O	1.41
2. O=C(O)CNC(=O)c1nc(Cl)c2ccccc2c1O	-0.68
3. O=C(N[C@H](Cc1ccccc1)C(=O)O)c1nc(Cl)c2ccccc2c1O	1.58
4. CC(C)C[C@@H](NC(=O)c1nc(Cl)c2ccccc2c1O)C(=O)O	1.97
5. O=C(N[C@@H](Cc1c[nH]c2ccccc12)C(=O)O)c1nc(Cl)c2ccccc2c1O	-0.05

[in] Consider the compound "O=C(N[C@H](Cc1c[nH]c2ccccc12)C(=O)O)c1nc(Cl)c2ccccc2c1O" tested on Gamma-butyrobetaine dioxygenase (Pseudomonas sp. (strain AK-1)); state its log10(IC50).
[out] 1.26

[in] Consider the compound "CC(C)[C@H](NC(=O)c1nc(Cl)c2ccccc2c1O)C(=O)O" tested on Gamma-butyrobetaine dioxygenase (Pseudomonas sp. (strain AK-1)); state its log10(IC50).
[out] 1.36

====

- MEASURED ON: Gamma-butyrobetaine dioxygenase (Pseudomonas sp. (strain AK-1)) (UniProt P80193)
- ASSAY METHOD TEXT: Inhibition of GBB binding to Pseudomonas sp. AK1 BBOX at 25 uM in presence of Mn2+ by 1H NMR GBB/2OG dual reporter displacement assay
The source made the active and inactive calls. No cut-off for these calls is given here.
Can you answer with just one of these options? yes (active), no (inactive)

1) CC(C)[C@H](NC(=O)c1nc(Cl)c2ccccc2c1O)C(=O)O	yes
2) O=C(O)C[C@H](NC(=O)c1nc(Cl)c2ccccc2c1O)C(=O)O	no
3) CC(C)C[C@@H](NC(=O)c1nc(Cl)c2ccccc2c1O)C(=O)O	no

Then this molecule:
[in] What did this assay record as the result for "O=C(O)CNC(=O)c1nc(Cl)c2ccccc2c1O" ?
[out] no

====

- MEASURED ON: Gamma-butyrobetaine dioxygenase (Pseudomonas sp. (strain AK-1))
- ASSAY METHOD TEXT: Inhibition of Pseudomonas sp. AK1 BBOX assessed as hydroxylation of GBB to L-carnitine measured for 60 sec in presence of 2OG and Fe2+ by 1H NMR assay
Quick reference for pIC50 among some molecules
Worth noting: pIC50 values are minus log10 of concentrations stated in mol/L.

1. O=C(O)C[C@@H](NC(=O)c1nc(Cl)c2ccccc2c1O)C(=O)O	4.42
2. O=C(O)C[C@H](NC(=O)c1nc(Cl)c2ccccc2c1O)C(=O)O	4.12

[in] Consider the molecule "O=C(N[C@@H](Cc1ccccc1)C(=O)O)c1nc(Cl)c2ccccc2c1O" tested on Gamma-butyrobetaine dioxygenase (Pseudomonas sp. (strain AK-1)); state its pIC50.
[out] 6.00
